Where no end group is shown, it is not given here.
property-name: ATR-FTIR amide-I shoulder (cm⁻¹)
Report the figure in cm⁻¹ without appending any unit label.

Reported ATR-FTIR amide-I shoulder of KNKMFGVALFNFGFKEDLLFLK [α3-scrambled] : 1680

----------
property-name: ATR-FTIR amide-I peak/maximum (cm⁻¹)
Report the figure in cm⁻¹ without appending any unit label.

Reported ATR-FTIR amide-I peak/maximum of CC[C@H](C)[C@H](NC(=O)CNC(=O)[C@@H](N)CCSC)C(=O)N[C@H](C(=O)N[C@@H](C)C(=O)NCC(=O)N[C@H](C(=O)N[C@H](C(=O)N[C@@H](CCCCN)C(=O)N[C@@H](Cc1ccccc1)C(=O)N[C@H](C(=O)N[C@@H](CCCCN)C(=O)NCC(=O)N[C@@H](CC(C)C)C(=O)N[C@H](C(=O)N[C@@H](CCC(=O)O)C(=O)N[C@@H](CCCCN)C(=O)N[C@@H](Cc1ccccc1)C(=O)N[C@H](C(=O)NCC(=O)N[C@@H](CCCCN)C(=O)O)[C@@H](C)O)[C@@H](C)CC)[C@@H](C)CC)[C@@H](C)CC)[C@@H](C)CC)[C@@H](C)CC [PSMα2] : 1650
